target: Melatonin receptor type 1A (Homo sapiens)
Sequence (P48039 whole entry): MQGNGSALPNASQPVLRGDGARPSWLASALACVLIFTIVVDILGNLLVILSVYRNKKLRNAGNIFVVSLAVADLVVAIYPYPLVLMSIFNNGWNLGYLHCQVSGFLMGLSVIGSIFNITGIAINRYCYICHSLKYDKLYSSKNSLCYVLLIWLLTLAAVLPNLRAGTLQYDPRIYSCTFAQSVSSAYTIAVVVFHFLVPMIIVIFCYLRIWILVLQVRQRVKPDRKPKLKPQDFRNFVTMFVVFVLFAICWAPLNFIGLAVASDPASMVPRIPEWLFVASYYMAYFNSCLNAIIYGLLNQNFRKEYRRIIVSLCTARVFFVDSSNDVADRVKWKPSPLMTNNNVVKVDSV
Category | rule: reported Ki within range, see bottom range = under 8 nM, center range = from 8 nM up to 60 nM, top range = 60 nM and over

[[record]]
cpd_smiles = "CCC(=O)NCCCc1cccc2ncoc12"
assigned_label = "bottom range"

[[record]]
cpd_smiles = "CCCc1nc2cccc(CCCNC(=O)NCC)c2o1"
assigned_label = "top range"

[[record]]
cpd_smiles = "CCNC(=O)NCCCc1cccc2nc(C(C)C)oc12"
assigned_label = "top range"

[[record]]
cpd_smiles = "CC(C)c1nc2cccc(CCCNC(=O)C3CC3)c2o1"
assigned_label = "center range"

[[record]]
cpd_smiles = "CCNC(=O)NCCCc1cccc2nc(CC)oc12"
assigned_label = "top range"

[[record]]
cpd_smiles = "Cc1nc2cccc(CCCNC(=O)C(C)C)c2o1"
assigned_label = "bottom range"

[[record]]
cpd_smiles = "CCCC(=O)NCCCc1cccc2nc(C)oc12"
assigned_label = "bottom range"

[[record]]
cpd_smiles = "CC(C)C(=O)NCCCc1cccc2nc(-c3ccccc3)oc12"
assigned_label = "top range"

[[record]]
cpd_smiles = "CCCc1nc2cccc(CCCNC(=O)C3CC3)c2o1"
assigned_label = "center range"

[[record]]
cpd_smiles = "CCC(=O)NCCCc1cccc2nc(CC)oc12"
assigned_label = "bottom range"

[[record]]
cpd_smiles = "CC(=O)NCCCc1cccc2nc(-c3ccccc3)oc12"
assigned_label = "center range"

[[record]]
cpd_smiles = "CCc1nc2cccc(CCCNC(=O)C(C)C)c2o1"
assigned_label = "center range"

[[record]]
cpd_smiles = "O=C(NCCCc1cccc2nc(-c3ccccc3)oc12)C1CC1"
assigned_label = "center range"


This collection of values is drawn from ChEMBL document CHEMBL1146812.
